TARGET_ENTITY: androgen receptor (AR) (Homo sapiens, UniProt P10275)
Sequence (P10275 whole entry): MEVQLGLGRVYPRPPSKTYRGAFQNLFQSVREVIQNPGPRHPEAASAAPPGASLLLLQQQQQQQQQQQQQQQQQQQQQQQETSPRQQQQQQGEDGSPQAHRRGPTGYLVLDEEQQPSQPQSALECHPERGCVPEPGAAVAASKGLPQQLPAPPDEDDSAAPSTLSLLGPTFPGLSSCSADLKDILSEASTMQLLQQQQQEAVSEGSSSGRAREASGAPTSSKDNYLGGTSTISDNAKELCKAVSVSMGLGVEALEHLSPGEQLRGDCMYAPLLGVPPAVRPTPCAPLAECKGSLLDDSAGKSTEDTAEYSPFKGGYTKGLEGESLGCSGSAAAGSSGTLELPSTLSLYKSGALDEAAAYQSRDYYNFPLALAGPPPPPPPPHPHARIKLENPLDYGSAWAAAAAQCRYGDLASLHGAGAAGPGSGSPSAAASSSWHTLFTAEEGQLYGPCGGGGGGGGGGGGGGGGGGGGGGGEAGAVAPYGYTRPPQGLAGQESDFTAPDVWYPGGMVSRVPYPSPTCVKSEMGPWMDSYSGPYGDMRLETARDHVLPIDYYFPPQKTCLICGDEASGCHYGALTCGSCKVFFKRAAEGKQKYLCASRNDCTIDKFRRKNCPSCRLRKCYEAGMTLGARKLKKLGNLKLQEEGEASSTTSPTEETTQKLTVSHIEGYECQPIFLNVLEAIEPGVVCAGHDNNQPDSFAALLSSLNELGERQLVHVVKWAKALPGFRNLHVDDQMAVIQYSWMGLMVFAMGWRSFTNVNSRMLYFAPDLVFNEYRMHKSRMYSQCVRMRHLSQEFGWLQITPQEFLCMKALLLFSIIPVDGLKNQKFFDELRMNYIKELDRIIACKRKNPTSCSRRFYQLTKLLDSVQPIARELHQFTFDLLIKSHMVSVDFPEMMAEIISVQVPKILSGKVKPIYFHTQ
PROTOCOL_DESCRIPTION: Degradation of androgen receptor (AR) protein in VCaP cells by Western blot
Format: cell-based
APPLIED_CONDITIONS: percentage of degraded AR at 100 nM, VCaP cells, 16 h
Protocol: Determination of the Degradation Activity of the Compound on Androgen Receptor (AR) Protein by Western Blot 1) VCaP cells were subcultured in cell culture media, and then the cells in good growth condition were seeded in a 12-well plate at 1 ml/well (5×10^5 cells/well), and cultured overnight in a 37° C., 5% CO2 cell incubator. 2) The test compound was prepared into a 10 mM stock solution with dimethyl sulfoxide (DMSO). […] The protein concentration was measured with BCA kit. […]
READOUT_TYPE: inhibition at 0.1 µM

>  <MOLECULE>
N#Cc1ccc(O[C@H]2CC[C@H](NC(=O)c3ccc(N4CC(N5CC6CN(c7cc8c(cc7F)C(=O)N(C7CCC(=O)NC7=O)C8=O)CC6C5)C4)nn3)CC2)cc1Cl (stereo partly drawn) [Compound 223]

>  <inhibition at 0.1 µM>
> 80%

$$$$
>  <MOLECULE>
N#Cc1ccc(OC2CC3(CC(NC(=O)c4ccc(N5CCC(CN6CCN(c7ccc8c(c7)C(=O)N(C7CCC(=O)NC7=O)C8=O)CC6)CC5)nn4)C3)C2)cc1Cl (stereo not drawn) [Compound 109]

>  <inhibition at 0.1 µM>
< 25%

$$$$

Now for a further molecule.
What measured inhibition at 0.1 µM goes with N#Cc1ccc(O[C@H]2CC[C@H](NC(=O)c3cnc(N4CC(CN5CC6CN(c7cc8c(cc7F)C(=O)N(C7CCC(=O)NC7=O)C8=O)CC6C5)C4)cn3)CC2)cc1Cl (stereo partly drawn) [Compound 138] ?
25 to 49%
